Test Summary: Half life in beagle dog intestine
Recorded Metric: half-life (min)
Answer format: numeric, min implied, no suffix.

The value of half-life measured for the compound CC(C)OC(=O)[C@H](C)N[P@](=O)(CO[C@H](C)Cn1cnc2c(N)ncnc21)Oc1ccccc1 [TENOFOVIR ALAFENAMIDE] turned out to be 31

###

Test Summary: Plasma concentration in dog at 5 mg/kg at 1 hr post dose
Recorded Metric: concentration at 1 h (µM)
Answer format: numeric, µM implied, no suffix.

The value of concentration at 1 h measured for the compound CC(C)OC(=O)[C@H](C)N[P@](=O)(CO[C@H](C)Cn1cnc2c(N)ncnc21)Oc1ccccc1 [TENOFOVIR ALAFENAMIDE] turned out to be 18

FYI, the data here is from ChEMBL document CHEMBL4020813.
